# tested_target: c-Src SH2;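 further: peptide library displayed on the E. coli surface as eCPX fusions, selected cells deep-sequenced, score is each peptide's frequency after selection divided by its frequency in the input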
# protocol: SH2 binding enrichment of the phosphorylated peptide, bacterial display (enrichment ratio); higher = better substrate or ligand; peptides without Tyr show the background
Measured SH2 binding enrichment determines class: 0 (below 0.5), 1 (0.5 to below 0.8), 2 (0.8 or more)

1) QCQLKYSETPF [SIX6OS1_Y129_Y125C]; 1
2) ACVARYIFKRL [LPCAT3_Y348_W344C]; 1
3) GHPFAYDWISI [BEST1_Y227_L224P_YF]; 2
4) SIDLGYHKDLQ [NF1_Y1169_G1166D]; 1
5) GRQGIYTENER [GPR143_Y231]; 1
6) GMRHGYGVRQS [JPH2_Y141]; 2

Query: Hi, small favor: classify IHHIDYFKETT [FGFR1_Y653_K656E_YF] by its SH2 binding enrichment when you get a moment.
Reply: 0

Query: Hi, small favor: classify RREQDYTNLPS [CSF1R_Y923_R921Q] by its SH2 binding enrichment when you get a moment.
Reply: 1

Query: Hi, small favor: classify FPPDGYSRHFE [CTNND1_Y213_YF] by its SH2 binding enrichment when you get a moment.
Reply: 0

Query: Hi, small favor: classify ETELPYQELQG [TYROBP_Y91_S89L] by its SH2 binding enrichment when you get a moment.
Reply: 2

Query: Hi, small favor: classify QSPQLYKQLCI [DARS1_Y253_M256L] by its SH2 binding enrichment when you get a moment.
Reply: 0

Query: Hi, small favor: classify RLEGVYGNNID [PTEN_Y46_R47G] by its SH2 binding enrichment when you get a moment.
Reply: 0

Query: Hi, small favor: classify SLDLSYFPTSS [EMD_Y181_YF] by its SH2 binding enrichment when you get a moment.
Reply: 0

Query: Hi, small favor: classify RWGQKHMTAVV [CYBA_Y72_Y72H] by its SH2 binding enrichment when you get a moment.
Reply: 2

Query: Hi, small favor: classify PSAELYSYALP [PDGFRB_Y716_N718Y] by its SH2 binding enrichment when you get a moment.
Reply: 2

Query: Hi, small favor: classify FQEKGYNKEPR [CHRND_Y38_L42P] by its SH2 binding enrichment when you get a moment.
Reply: 1
